B1: Pistol ribozyme (parent)
chain: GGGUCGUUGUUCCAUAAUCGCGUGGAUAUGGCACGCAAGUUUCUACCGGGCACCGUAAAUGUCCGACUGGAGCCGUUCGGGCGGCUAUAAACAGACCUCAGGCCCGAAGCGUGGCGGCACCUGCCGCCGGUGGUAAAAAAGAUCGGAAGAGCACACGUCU

variants of: B1; test: aptazyme ON/OFF ratio, guanine; higher = stronger switching; co-transcriptional cleavage with and without guanine
Please respond with reported aptazyme ON/OFF ratio for every item in the list.
// print number alone

Lab note: U7C G9U U11G C12U C13G gave aptazyme ON/OFF ratio of 1.11

Lab note: U7G U8C U10C U11A C13A gave aptazyme ON/OFF ratio of 1.18

Lab note: U7G U8A G9U U10A U11C C13A gave aptazyme ON/OFF ratio of 1.04

Lab note: U7A U8G G9C U10C C12G C13U gave aptazyme ON/OFF ratio of 1.46

Lab note: U7C U8C G9A U10G C12A C13G gave aptazyme ON/OFF ratio of 1.09

Lab note: U8A G9A U10G U11G C12U C13A gave aptazyme ON/OFF ratio of 1.36

Lab note: U7C U8C G9U U11A C12A C13G gave aptazyme ON/OFF ratio of 1.1

Lab note: U7G U8G G9U U10C U11A C12G C13G gave aptazyme ON/OFF ratio of 1.15
